Data credit: ChEMBL document CHEMBL1201862

tested on: MOLT-4; assay: NCI tumour cell line growth inhibition, 48 h
Activity calls are given as the source filed them. Cut-off read from the data, not from the text of the source: active = GI50 up to about 1.1 µM and inactive = higher.
Returns: one label drawn from active, inactive

Study these solved cases before continuing.
CO[C@@H]1C=C[C@@]23c4cc5c(cc4CN(C[C@@H]2O)[C@H]3C1)OCO5 [(+)-HAEMANTHAMINE] ... inactive
CCCCCCCCCCCCCC1CCC(CC)N1 (stereo not given) ... inactive
O=C(Oc1cccc2cccnc12)c1cc2cc(CCl)ccc2oc1=O ... inactive
CCOC(=O)/C(C(N)=O)=C(/O)c1cnccn1 ... inactive

# fetch the recorded call for OC[C@H]1NC[C@@H](O)[C@@H](O)[C@H]1O here
inactive

Could you check what this test reported for COc1ccc(OC)c2cc(C3(C)SCCCS3)ccc12 ?
inactive

Name the outcome recorded for Cc1cc2c(cc1Cl)SC(NNc1ccc([N+](=O)[O-])cc1)=NS2(=O)=O in the assay.
inactive

Can you look up the reported call for C=C1C(=O)C23CC1CCC2C12CO[C@H](O)[C@H]1C(C)(C)[C@H](OC(C)=O)C[C@H]2OC3=O (stereo not given in full) for me?
inactive

// param item: C[Si](C)(OCCS(=O)(=O)O)C1(Cc2cccc3ccccc23)S(=O)(=O)OCCOS1(=O)=O ; yields the recorded call
inactive

Look up the recorded call for CC1=Nc2c(ccc3c2C(=O)c2ccccc2C3=O)NC(c2ccncc2)C1 (stereo not given) in this test.
inactive

====

tested on: HL-60; experiment: NCI tumour cell line growth inhibition, 48 h
Active and inactive are the calls of the source. No stated cut-off is given here; in the data, active = GI50 up to about 1.1 µM and inactive = higher.
Hi there, use one of these labels in your reply, thanks! active, inactive

Use these answered entries as a reference point.
O=C(Oc1cccc2cccnc12)c1cc2cc(CCl)ccc2oc1=O ... inactive
Cc1ccc(CC2(OCCN(C)C)CCC(C(C)(C)C)CC2)cc1 (configuration not stated) ... inactive

Then this compound:
What did the test return for Cc1ccc(S(=O)(=O)/N=C2/N(C)CCCS2(=O)=O)cc1 ?
inactive

====

Reported GI50 values follow for various molecules
system: SR; assay: NCI tumour cell line growth inhibition, 48 h
Active and inactive are the calls of the source. No stated cut-off is given here; in the data, active = GI50 up to about 1.1 µM and inactive = higher.

Take a look at these entries with their results.
CS(=O)(=O)Nc1ccc(NCc2c[nH]c3ccc4ncccc4c23)cc1 ... 13.3 µM (inactive)
CSc1nc(C)cc(Nc2ccc(O)c(CN3CCOCC3)c2)n1 ... > 100 µM (inactive)
CC(C)(C)C1=Nc2c(Br)cc(C(C)(C)C)cc2C(C(F)(F)F)(C(F)(F)F)O1 ... 54 µM (inactive)
Cc1ccccc1/C=C/C(=O)c1ccccc1 ... 29 µM (inactive)
O=C(CN1CCN(c2ccccn2)CC1)N1CCCn2c1nc1ccccc1c2=O ... > 100 µM (inactive)

We now examine a further molecule.
For COC(=O)c1nn(C(=N)c2ccc(Cl)cc2)c2c1CCC2 , what is its reported GI50?
14.7 µM (inactive)

====

test system: COLO 205; experiment: NCI tumour cell line growth inhibition, 48 h
Calls of active or inactive are those of the source. No stated cut-off is given here; in the data, active = GI50 up to about 1.1 µM and inactive = higher.
# GI50 annotations

CC(O)(Cc1ccccc1C#N)Cc1ccccc1C#N ... 70.8 µM (inactive)
CCCCCCCCCCCCCC1CCC(CC)N1 (centres undefined) ... 15.1 µM (inactive)
O=C1N[C@H](C(=O)O)[C@@H](c2ccc(OCc3ccccc3)cc2)O1 ... > 100 µM (inactive)
O/N=C1/CCCc2nonc21 ... > 100 µM (inactive)
COc1cc2c(c(O)c1OC)C(=O)[C@@H]1CCC(=O)N1C2 ... > 100 µM (inactive)

Proceed to the following item.
Please state recorded GI50 (tested on COLO 205) of O=C1NC2c3c(I)sc(I)c3C(=O)C2O1 (centres undefined)
2.67 µM (inactive)
